Numbered stars: 1 amine (or outer) side, 2 acyl side, 3 side chain; on linkers, the order of the positions; unused ones are H or OH. Square brackets hold non-standard residues; d marks the D form. Peptide text beside a SMILES is read from it. * marks the point of attachment. ξ: configuration not given here. Gly(1-amidinopiperidin-4-yl) = N=C(N)N1CCC([C@H](N)C(=O)O)CC1; X1 = CC(C)c1oc([C@H](CO)N[*:1])nc1C(=O)[*:2]; Pro(3R-Ph) = O=C(O)[C@H]1NCC[C@@H]1c1ccccc1; N(Me)CH2CH2Ph = CN(CCc1ccccc1)*; Tic = O=C(O)[C@@H]1Cc2ccccc2CN1; Cha = N[C@@H](CC1CCCCC1)C(=O)O; ξDisc = O=C(O)C1NCc2ccccc21; Nle = CCCC[C@H](N)C(=O)O
Consider the following Stability (Arbitrary units) Cath D 4 h values measured on Cathepsin D (EC 3.4.23.5 from bovine spleen) (Bos taurus, UniProt P80209).

# lookup: CCCC[C@H](NC(=O)[C@@H]1Cc2ccccc2CN1C(=O)[C@H](CCCNC(=N)N)NC(=O)[C@H](CC1CCCCC1)NC(C)=O)C(=O)N(C)CCc1ccccc1 [Compound P83, Ac-Cha-Arg-Tic-Nle-N(Me)CH2CH2Ph] (Ac-[Cha]R[Tic][Nle]-{N(Me)CH2CH2Ph}) on Cathepsin D (EC 3.4.23.5 from bovine spleen) (Bos taurus, UniProt P80209), Stability (Arbitrary units) Cath D 4 h = 98 Arbitrary units

# lookup: CSCC[C@H](NC(=O)[C@@H]1Cc2ccccc2CN1C(=O)[C@@H](NC(=O)[C@H](CC1CCCCC1)NC(C)=O)C1CCN(C(=N)N)CC1)C(=O)N1CC[C@H](c2ccccc2)[C@H]1C(=O)N[C@@H](CO)c1nc(C(=O)N(C)C)c(C(C)C)o1 [Compound P60] (Ac-[Cha][Gly(1-amidinopiperidin-4-yl)][Tic]M[Pro(3R-Ph)][X1]-NMe2) on Cathepsin D (EC 3.4.23.5 from bovine spleen) (Bos taurus, UniProt P80209), Stability (Arbitrary units) Cath D 4 h = 108 Arbitrary units

# lookup: CSCC[C@H](NC(=O)C1c2ccccc2CN1C(=O)[C@@H](NC(=O)[C@H](CC1CCCCC1)NC(C)=O)C1CCN(C(=N)N)CC1)C(=O)N1CC[C@H](c2ccccc2)[C@H]1C(=O)N[C@@H](CO)c1nc(C(=O)N(C)C)c(C(C)C)o1 (stereo partly drawn) [Compound P41-1] (Ac-[Cha][Gly(1-amidinopiperidin-4-yl)][ξDisc]M[Pro(3R-Ph)][X1]-NMe2) on Cathepsin D (EC 3.4.23.5 from bovine spleen) (Bos taurus, UniProt P80209), Stability (Arbitrary units) Cath D 4 h = 103 Arbitrary units

====

# EXPERIMENTAL_SYSTEM: LG2 (DR1: DRA1*0101 DRB1*0101) cells (Homo sapiens, UniProt P01903+P01911, A100R/D57E/F55L/F60I/F76Y/I96L/L162R/M171V/P40L/Q125E/R42F/V115G/Y59C)
# Construct: MHC II Proteins Expressed on PRIESS and LG2 Cells; endogenous in cells; host or cells: LG2 cells
# ASSAY_PROCEDURE: Competitive binding to MHC II proteins expressed on LG2 cells
# Format: cell-based
# SETTINGS: Cell binding IC50 (uM) LG2 (0101), LG2 (0101)
Numbered stars: 1 amine (or outer) side, 2 acyl side, 3 side chain; on linkers, the order of the positions; unused ones are H or OH. Square brackets hold non-standard residues; d marks the D form. Peptide text beside a SMILES is read from it. * marks the point of attachment. ξ: configuration not given here. Gly(1-amidinopiperidin-4-yl) = N=C(N)N1CCC([C@H](N)C(=O)O)CC1; X1 = CC(C)c1oc([C@H](CO)N[*:1])nc1C(=O)[*:2]; Pro(3R-Ph) = O=C(O)[C@H]1NCC[C@@H]1c1ccccc1; Met(O) = CS(=O)CC[C@H](N)C(=O)O; Tic = O=C(O)[C@@H]1Cc2ccccc2CN1; Cha = N[C@@H](CC1CCCCC1)C(=O)O; NMe(benzyl) = CN(Cc1ccccc1)*; ξDisc = O=C(O)C1NCc2ccccc21; Nle = CCCC[C@H](N)C(=O)O
QUANTITY_NAME: IC50 (µM)
# output: bare number, implied unit µM

Looking up CCCC[C@H](NC(=O)[C@@H]1Cc2ccccc2CN1C(=O)[C@@H](NC(=O)[C@H](CC1CCCCC1)NC(C)=O)C1CCN(C(=N)N)CC1)C(=O)N1CC[C@H](c2ccccc2)[C@H]1C(=O)N[C@@H](CO)c1nc(C(=O)N(C)C)c(C(C)C)o1 [Compound P53] (Ac-[Cha][Gly(1-amidinopiperidin-4-yl)][Tic][Nle][Pro(3R-Ph)][X1]-NMe2) , I found its IC50 recorded as 3.5

Looking up CC(=O)N[C@@H](CC1CCCCC1)C(=O)N[C@@H](CCCNC(=N)N)C(=O)N1Cc2ccccc2C[C@H]1C(=O)N[C@@H](CC[S+](C)[O-])C(=O)N1CC[C@H](c2ccccc2)[C@H]1C(=O)N[C@@H](CO)c1nc(C(=O)N(C)C)c(C(C)C)o1 (stereo partly drawn) [Compound P43] (Ac-[Cha]R[Tic][Met(O)][Pro(3R-Ph)][X1]-NMe2) , I found its IC50 recorded as 13

Looking up CCCC[C@H](NC(=O)C1c2ccccc2CN1C(=O)[C@H](CCCNC(=N)N)NC(=O)[C@H](CC1CCCCC1)NC(C)=O)C(=O)N(C)Cc1ccccc1 (stereo partly drawn) [Compound P72-1, Ac-Cha-Arg-Disc-Nle-N(Me)Bn] (Ac-[Cha]R[ξDisc][Nle]-{NMe(benzyl)}) , I found its IC50 recorded as 12

====

# ASSAY_PROCEDURE: Stability of compounds in rat blood plasma
# Format: in vitro ADME
Numbered stars: 1 amine (or outer) side, 2 acyl side, 3 side chain; on linkers, the order of the positions; unused ones are H or OH. Square brackets hold non-standard residues; d marks the D form. Peptide text beside a SMILES is read from it. * marks the point of attachment. ξ: configuration not given here. Gly(1-amidinopiperidin-4-yl) = N=C(N)N1CCC([C@H](N)C(=O)O)CC1; X1 = CC(C)c1oc([C@H](CO)N[*:1])nc1C(=O)[*:2]; Pro(3R-Ph) = O=C(O)[C@H]1NCC[C@@H]1c1ccccc1; Tic = O=C(O)[C@@H]1Cc2ccccc2CN1; Cha = N[C@@H](CC1CCCCC1)C(=O)O; NMe(benzyl) = CN(Cc1ccccc1)*; ξDisc = O=C(O)C1NCc2ccccc21; Nle = CCCC[C@H](N)C(=O)O; X2 = OCCOCCN(Cc1ccccc1)*; X5 = OCCN(Cc1ccccc1)*
// NB: equality with 100 Arbitrary units counts as NO; only Stability (Arbitrary units) Rat 24 h strictly below is YES

A record lists CSCC[C@H](NC(=O)[C@@H]1Cc2ccccc2CN1C(=O)[C@H](CCCNC(=N)N)NC(=O)[C@H](CC1CCCCC1)NC(C)=O)C(=O)N1CC[C@H](c2ccccc2)[C@H]1C(N)=O [Compound P31, Ac-Cha-Arg-Tic-Met-βPhPro-NH2] (Ac-[Cha]R[Tic]M[Pro(3R-Ph)]-NH2) . Is its Stability (Arbitrary units) Rat 24 h below 100 Arbitrary units?
YES

A record lists CCCC[C@H](NC(=O)[C@@H]1Cc2ccccc2CN1C(=O)[C@@H](NC(=O)[C@H](CC1CCCCC1)NC(C)=O)C1CCN(C(=N)N)CC1)C(=O)N(CCO)Cc1ccccc1 [Compound P78, Ac-Cha-Gpg-Tic-Nle-N(Bn)CH2CH2OH] (Ac-[Cha][Gly(1-amidinopiperidin-4-yl)][Tic][Nle]-X5) . Is its Stability (Arbitrary units) Rat 24 h below 100 Arbitrary units?
NO

A record lists CCCC[C@H](NC(=O)[C@@H]1Cc2ccccc2CN1C(=O)[C@@H](NC(=O)[C@H](CC1CCCCC1)NC(C)=O)C1CCN(C(=N)N)CC1)C(=O)N1CC[C@H](c2ccccc2)[C@H]1C(=O)N[C@@H](CO)c1nc(C(=O)N(C)C)c(C(C)C)o1 [Compound P53] (Ac-[Cha][Gly(1-amidinopiperidin-4-yl)][Tic][Nle][Pro(3R-Ph)][X1]-NMe2) . Is its Stability (Arbitrary units) Rat 24 h below 100 Arbitrary units?
NO

A record lists CSCC[C@H](NC(=O)[C@@H]1Cc2ccccc2CN1C(=O)[C@H](CCCNC(=N)N)NC(=O)[C@H](CC1CCCCC1)NC(C)=O)C(N)=O [Compound P1, Ac-Cha-Arg-Tic-Met-NH2] (Ac-[Cha]R[Tic]M-NH2) . Is its Stability (Arbitrary units) Rat 24 h below 100 Arbitrary units?
YES

A record lists CSCC[C@H](NC(=O)[C@@H]1Cc2ccccc2CN1C(=O)[C@@H](NC(=O)[C@H](CC1CCCCC1)NC(C)=O)C1CCN(C(=N)N)CC1)C(=O)N(CCOCCO)Cc1ccccc1 [Compound P102, Ac-Cha-Gpg-Tic-Met-N(Bn)CH2CH2OCH2CH2OH] (Ac-[Cha][Gly(1-amidinopiperidin-4-yl)][Tic]M-X2) . Is its Stability (Arbitrary units) Rat 24 h below 100 Arbitrary units?
NO

A record lists CCCC[C@H](NC(=O)C1c2ccccc2CN1C(=O)[C@H](CCCNC(=N)N)NC(=O)[C@H](CC1CCCCC1)NC(C)=O)C(=O)N(C)Cc1ccccc1 (stereo partly drawn) [Compound P72-1, Ac-Cha-Arg-Disc-Nle-N(Me)Bn] (Ac-[Cha]R[ξDisc][Nle]-{NMe(benzyl)}) . Is its Stability (Arbitrary units) Rat 24 h below 100 Arbitrary units?
YES

Source listed as patent US7629318B2.
